# target of assay: PAD3 (Homo sapiens, UniProt Q9ULW8)
# Construct: made in house
# experimental details: Inactivation kinetics, PAD3
# Format: biochemical
# assay conditions: kinact/KI relative to least inhibited isozyme (1.0)
quantity kind: Fold PAD3 Selectivity (fold)
Answer in fold, number only, no unit symbol.

- molecule: "N=C(CCl)NCCC[C@H](NC(=O)c1cccc2c1C(=O)NC2)c1nc2ccccc2[nH]1"
  quantity kind: "Fold PAD3 Selectivity"
  assay result: 1.0
- molecule: "COc1cccc2c1nc([C@H](CCCNC(=N)CCl)NC(=O)c1cccc3c1C(=O)N(C)C3)n2C"
  quantity kind: "Fold PAD3 Selectivity"
  assay result: 2.2
- molecule: "Cn1c([C@H](CCCNC(=N)CF)NC(=O)c2ccccc2C(=O)OC(C)(C)C)nc2ccccc21"
  quantity kind: "Fold PAD3 Selectivity"
  assay result: 1.0

Request: Fold PAD3 Selectivity for CCN1Cc2cccc(C(=O)N[C@@H](CCCNC(=N)CF)c3nc4ccccc4n3CC)c2C1=O ?
Response: 1.0

Request: Ok, now N=C(CCl)NCCC[C@H](NC(=O)c1ccc(-c2ccccc2)cc1)c1nc2cc(F)c(F)cc2[nH]1
Response: 2.6

====

# target of assay: PAD4 (Homo sapiens)
# Construct: made in house
# experimental details: Inactivation kinetics, PAD4
# Type: biochemical
# assay conditions: a: single kobs determined; b: from a linear fit
# kinact/KI listing for each entry below
Answer in M⁻¹ s⁻¹, number only, no unit symbol.

Request: Record lookup: for PAD4 (Homo sapiens), what kinact/KI belongs to CCn1c([C@H](CCCNC(=N)CCl)NC(=O)c2cccc3c2C(=O)NC3)nc2cc(OC)ccc21 [Compound 7v] ?
Response: 48.8

Request: Ok, now CC(C)n1c([C@H](CCCNC(=N)CCl)NC(=O)c2cccc3c2C(=O)NC3)nc2ccccc21 [Compound 7h]
Response: 35

====

# target of assay: PAD4 (Homo sapiens, UniProt Q9UM07)
# Construct: made in house
# Sequence (Q9UM07 whole entry): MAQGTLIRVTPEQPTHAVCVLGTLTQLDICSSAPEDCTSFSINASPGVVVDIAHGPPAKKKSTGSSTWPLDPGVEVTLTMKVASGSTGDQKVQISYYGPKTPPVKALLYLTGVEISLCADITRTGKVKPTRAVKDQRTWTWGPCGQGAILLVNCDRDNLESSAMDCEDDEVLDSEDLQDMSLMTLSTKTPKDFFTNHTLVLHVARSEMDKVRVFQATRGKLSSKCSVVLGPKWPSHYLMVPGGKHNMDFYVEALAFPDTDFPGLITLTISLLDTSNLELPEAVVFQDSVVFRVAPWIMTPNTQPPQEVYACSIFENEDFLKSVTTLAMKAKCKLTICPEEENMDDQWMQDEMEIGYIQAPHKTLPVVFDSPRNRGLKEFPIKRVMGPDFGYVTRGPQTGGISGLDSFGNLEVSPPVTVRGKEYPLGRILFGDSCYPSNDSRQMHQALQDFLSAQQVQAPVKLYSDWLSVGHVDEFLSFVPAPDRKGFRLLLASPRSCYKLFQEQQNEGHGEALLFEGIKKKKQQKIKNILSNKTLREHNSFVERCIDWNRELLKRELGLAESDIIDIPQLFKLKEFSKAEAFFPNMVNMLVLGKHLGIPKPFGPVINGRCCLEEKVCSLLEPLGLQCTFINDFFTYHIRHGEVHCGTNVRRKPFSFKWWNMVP
# experimental details: Inactivation kinetics, PAD4
# Type: biochemical
# assay conditions: a: single kobs determined; b: from a linear fit
Category key, based on recorded kinact/KI: class A (below 30 M⁻¹ s⁻¹), class B (30 M⁻¹ s⁻¹ to below 100 M⁻¹ s⁻¹), class C (100 M⁻¹ s⁻¹ or more)

Would you please look over these solved cases?
- compound: "CCn1c([C@H](CCCNC(=N)CCl)NC(=O)c2ccc(-c3ccccc3)cc2)nc2ccccc21 [Compound 5j]"
  assigned class: "class B"
- compound: "CCn1c([C@H](CCCNC(=N)CF)NC(=O)c2cccc3c2C(=O)NC3)nc2ccccc21 [Compound 7e]"
  assigned class: "class B"

Request: Which bin should I file COc1cccc2c1nc([C@H](CCCNC(=N)CF)NC(=O)c1ccc(-c3ccccc3)cc1)n2C [Compound 5m] under?
Response: class A

Request: Ok, now Cn1c([C@H](CCCNC(=N)CCl)NC(=O)c2ccc(-c3ccccc3)cc2)nc2ccccc21 [Compound 5h]
Response: class B

Request: Ok, now COc1cccc2c1nc([C@H](CCCNC(=N)CCl)NC(=O)c1ccc(-c3ccccc3)cc1)n2C [Compound 5n]
Response: class C

Request: Ok, now CCN1Cc2cccc(C(=O)N[C@@H](CCCNC(=N)CCl)c3nc4cc(OC)ccc4n3C)c2C1=O [Compound 8p]
Response: class B

Request: Ok, now N=C(CCl)NCCC[C@H](NC(=O)c1ccc(-c2ccc(F)cc2)cc1)c1nc2cc(F)c(F)cc2[nH]1 [Compound 5t]
Response: class C

Request: Ok, now COc1cccc2c1nc([C@H](CCCNC(=N)CCl)NC(=O)c1cccc3c1C(=O)NC3)n2C [Compound 7l]
Response: class C

Request: Ok, now CCN1Cc2cccc(C(=O)N[C@@H](CCCNC(=N)CCl)c3nc4c(OC)cccc4[nH]3)c2C1=O [Compound 8j]
Response: class C

Request: Ok, now CCn1c([C@H](CCCNC(=N)CF)NC(=O)c2cccc3c2C(=O)NC3)nc2cc(OC)ccc21 [Compound 7u]
Response: class A

Request: Ok, now Cn1c([C@H](CCCNC(=N)CF)NC(=O)c2cccc3c2C(=O)NC3)nc2ccccc21 [Compound 7c]
Response: class B

Request: Ok, now CCN1Cc2cccc(C(=O)N[C@@H](CCCNC(=N)CCl)c3nc4cc(OC)ccc4n3CC)c2C1=O [Compound 8z]
Response: class A

Request: Ok, now N=C(CF)NCCC[C@H](NC(=O)c1ccccc1)c1nc2ccccc2[nH]1 [Compound 5a]
Response: class C

Request: Ok, now COc1ccc2c(c1)nc([C@H](CCCNC(=N)CCl)NC(=O)c1cccc3c1C(=O)NC3)n2C [Compound 7p]
Response: class B

Request: Ok, now N=C(CCl)NCCC[C@H](NC(=O)c1ccc(-c2ccccc2)cc1)c1nc2cc(F)c(F)cc2[nH]1 [Compound 5r]
Response: class C

Request: Ok, now CCn1c([C@H](CCCNC(=N)CF)NC(=O)c2ccccc2C(=O)O)nc2ccccc21 [Compound 6e]
Response: class A

====

# target of assay: PAD3 (Homo sapiens)
# Construct: made in house
# experimental details: Inactivation kinetics, PAD3
# Format: biochemical
# assay conditions: a: single kobs determined
Category key, based on recorded kinact/KI: bottom bin (below 30 M⁻¹ s⁻¹), middle bin (30 M⁻¹ s⁻¹ to below 90 M⁻¹ s⁻¹), top bin (90 M⁻¹ s⁻¹ or more)

Request: Which bin should I file CCN1Cc2cccc(C(=O)N[C@@H](CCCNC(=N)CF)c3nc4ccccc4n3C)c2C1=O [Compound 8c] under?
Response: top bin

Request: Ok, now CCN1Cc2cccc(C(=O)N[C@@H](CCCNC(=N)CF)c3nc4ccccc4n3CC)c2C1=O [Compound 8e]
Response: bottom bin

Request: Ok, now CCn1c([C@H](CCCNC(=N)CCl)NC(=O)c2ccccc2C(=O)OC(C)(C)C)nc2ccccc21 [Compound 9d]
Response: middle bin

Request: Ok, now CCN1Cc2cccc(C(=O)N[C@@H](CCCNC(=N)CF)c3nc4cc(OC)ccc4n3C)c2C1=O [Compound 8o]
Response: bottom bin

Request: Ok, now CCN1Cc2cccc(C(=O)N[C@@H](CCCNC(=N)CCl)c3nc4ccccc4[nH]3)c2C1=O [Compound 8b]
Response: top bin

Request: Ok, now CCn1c([C@H](CCCNC(=N)CCl)NC(=O)c2cccc3c2C(=O)NC3)nc2ccccc21 [Compound 7f]
Response: top bin

====

# target of assay: PAD3 (Homo sapiens)
# Construct: made in house
# Sequence (Q9ULW8 1-664): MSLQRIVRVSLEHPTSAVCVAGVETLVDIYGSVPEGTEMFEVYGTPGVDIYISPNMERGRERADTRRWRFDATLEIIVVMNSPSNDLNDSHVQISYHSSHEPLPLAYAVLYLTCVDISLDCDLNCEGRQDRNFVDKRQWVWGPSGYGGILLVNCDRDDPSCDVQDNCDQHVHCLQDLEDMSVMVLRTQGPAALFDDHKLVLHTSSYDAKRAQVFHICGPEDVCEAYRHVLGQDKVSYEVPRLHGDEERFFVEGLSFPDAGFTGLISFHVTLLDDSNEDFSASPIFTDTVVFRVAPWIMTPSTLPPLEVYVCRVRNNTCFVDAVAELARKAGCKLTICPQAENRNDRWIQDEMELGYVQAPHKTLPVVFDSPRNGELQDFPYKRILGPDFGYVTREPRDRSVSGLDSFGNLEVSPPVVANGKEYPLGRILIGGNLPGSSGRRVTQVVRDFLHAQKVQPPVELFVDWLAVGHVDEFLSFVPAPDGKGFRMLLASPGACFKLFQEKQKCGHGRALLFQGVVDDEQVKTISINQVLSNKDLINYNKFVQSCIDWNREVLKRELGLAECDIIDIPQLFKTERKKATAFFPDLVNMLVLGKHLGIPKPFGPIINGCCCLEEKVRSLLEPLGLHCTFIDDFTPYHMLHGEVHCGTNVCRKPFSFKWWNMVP
# experimental details: Inactivation kinetics, PAD3
# Assay type: biochemical
# assay conditions: a: single kobs determined
Classification field: enter Y for kinact/KI values not below 50 M⁻¹ s⁻¹, N for values below it.

Would you please look over these solved cases?
- molecule: "N=C(CF)NCCC[C@H](NC(=O)c1ccc2ccccc2c1)c1nc2ccccc2[nH]1"
  assigned class: "N"
- molecule: "CC(C)n1c([C@H](CCCNC(=N)CF)NC(=O)c2cccc3c2C(=O)NC3)nc2ccccc21"
  assigned class: "N"
- molecule: "N=C(CCl)NCCC[C@H](NC(=O)c1ccccc1)c1nc2ccccc2[nH]1"
  assigned class: "Y"
- molecule: "CC(C)n1c([C@H](CCCNC(=N)CF)NC(=O)c2ccc(-c3ccccc3)cc2)nc2ccccc21"
  assigned class: "N"
- molecule: "C#Cc1ccc(-c2ccc(C(=O)N[C@@H](CCCNC(=N)CF)c3nc4ccccc4[nH]3)cc2)cc1"
  assigned class: "N"

Request: hey, is kinact/KI for this one >= 50 M⁻¹ s⁻¹? CCn1c([C@H](CCCNC(=N)CF)NC(=O)c2ccccc2C(=O)OC(C)(C)C)nc2ccccc21
Response: Y

Request: Ok, now CCN1Cc2cccc(C(=O)N[C@@H](CCCNC(=N)CCl)c3nc4ccccc4n3CC)c2C1=O
Response: Y
